Target: PPARγ-LBD (UniProt ID: P37231-2) (Homo sapiens, UniProt P37231)
Construct: PPARγ-LBD (UniProt ID: P37231-2) was expressed and purified in insect system; made in house
Sequence (P37231 238-503 limits assumed): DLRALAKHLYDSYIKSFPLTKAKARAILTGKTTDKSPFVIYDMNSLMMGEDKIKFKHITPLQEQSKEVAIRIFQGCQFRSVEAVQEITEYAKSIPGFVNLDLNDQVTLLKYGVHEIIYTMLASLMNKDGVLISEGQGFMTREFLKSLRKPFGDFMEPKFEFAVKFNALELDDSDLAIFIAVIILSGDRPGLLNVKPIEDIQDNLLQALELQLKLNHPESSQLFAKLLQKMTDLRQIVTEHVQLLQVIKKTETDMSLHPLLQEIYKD
Test: PPARγ-SMRT recruitment assay (TR-FRET)
Assay type: biochemical
Conditions: 1 h; max value of % Activation; high control 10 uM control compound, low control 1% DMSO; read-out: Top %
ATTRIBUTE_MEASURED: Emax (%)
Quick reminder: number only, in %, skip the unit.

Reference set (3 entries):
*Q* What Emax value was documented for this compound, CS(=O)(=O)c1ccc(C#N)cc1-c1cc(=O)c2c(F)c(C#Cc3cnc4cccnn34)c(F)cc2[nH]1 [Example 40] ?
*A* 237

*Q* // query Emax value for entry COC(C)(C)C#Cc1c(F)cc2[nH]c(-c3cc(C#N)ccc3S(C)(=O)=O)cc(=O)c2c1F [Example 50]
*A* 372

*Q* Entry under review: CS(=O)(=O)c1ccc(C#N)cc1-c1cc(=O)c2c(F)c(C#Cc3ccccc3OC(F)F)c(F)cc2[nH]1 [Example 37] . Reported Emax?
*A* 406

New cases:
*Q* Give the measured Emax of CS(=O)(=O)c1ccc(C#N)cc1-c1cc(=O)c2c(F)c(C#Cc3ccccc3OC(F)(F)F)c(F)cc2[nH]1 [Example 36] .
*A* 322

*Q* // query Emax value for entry Cc1ccc(C#Cc2c(F)cc3[nH]c(-c4cc(C#N)ccc4S(C)(=O)=O)cc(=O)c3c2F)cc1 [Example 39]
*A* 406

*Q* Quick check: Emax of Cc1cnccc1C#Cc1c(F)cc2[nH]c(-c3cc(C#N)ccc3S(C)(=O)=O)cc(=O)c2c1F [Example 28] ?
*A* 293

*Q* Emax for Cc1cncc(C)c1C#Cc1c(F)cc2[nH]c(-c3cc(C#N)ccc3S(C)(=O)=O)cc(=O)c2c1F [Example 32] ?
*A* 343

---

Target: PPARγ-LBD (UniProt ID: P37231-2) (Homo sapiens, UniProt P37231)
Construct: PPARγ-LBD (UniProt ID: P37231-2) was expressed and purified in insect system
Assay: PPARγ-SMRT recruitment assay (TR-FRET)
Details: TR-FRET, SMRT peptide recruitment to PPARγ-LBD; 120 min pre-incubation
Protocol: PPARγ TR-FRET assay was initiated to evaluate potential activatory effect of the compounds of the present disclosure for SMRT recruitment to PPARγ protein. […] Plates were incubated for 60 min. and read in CLARIOstar Plus plate reader with Ex/Em 620 nm/[…]. Average TR-FRET ratio of high control (Wells with 10 uM control compound) was calculated as High Control (HC). Average TR-FRET ratio of low control (Wells with 1% DMSO) was calculated as Low control (LC). […]
ATTRIBUTE_MEASURED: EC50

*Q* Record `CS(=O)(=O)c1ccc(C#N)cc1-c1cc(=O)c2c(F)c(C3CC3)c(F)cc2[nH]1` : what is its EC50 with PPARγ-LBD (UniProt ID: P37231-2) (Homo sapiens, UniProt P37231)?
*A* < 100 nM

*Q* GET /values?readout=EC50&system=PPARγ-LBD (UniProt ID: P37231-2) (Homo sapiens, UniProt P37231)&item= `Cc1cncc(C)c1C#Cc1c(F)cc2[nH]c(-c3cc(C#N)ccc3S(C)(=O)=O)cc(=O)c2c1F`
*A* < 100 nM

*Q* Write down the reported EC50 of `CC(C)(C#Cc1c(F)cc2[nH]c(-c3cc(C#N)ccc3S(C)(=O)=O)cc(=O)c2c1F)S(C)(=O)=O` , test system: PPARγ-LBD (UniProt ID: P37231-2) (Homo sapiens, UniProt P37231).
*A* < 100 nM

*Q* Report EC50 for `CS(=O)(=O)c1ccc(C#N)cc1-c1cc(=O)c2c(F)c(C#CC3CCOCC3)c(F)cc2[nH]1` tested on PPARγ-LBD (UniProt ID: P37231-2) (Homo sapiens, UniProt P37231).
*A* < 100 nM

*Q* Report EC50 for `CCS(=O)(=O)c1ccc(C#N)cc1-c1cc(=O)c2c(F)c(C#CC3COC3)c(F)cc2[nH]1` tested on PPARγ-LBD (UniProt ID: P37231-2) (Homo sapiens, UniProt P37231).
*A* < 100 nM

*Q* Test system PPARγ-LBD (UniProt ID: P37231-2) (Homo sapiens, UniProt P37231); read-out EC50; what value for `Cn1cc(C#Cc2c(F)cc3[nH]c(-c4cc(C#N)ccc4S(C)(=O)=O)cc(=O)c3c2F)cn1` ?
*A* < 100 nM

*Q* Under PPARγ-LBD (UniProt ID: P37231-2) (Homo sapiens, UniProt P37231): EC50 value of `COc1cc(-c2cc(C#N)ccc2S(C)(=O)=O)nc2cc(F)c(C#CC(C)(C)F)c(F)c12` ?
*A* > 1000 nM

*Q* Under PPARγ-LBD (UniProt ID: P37231-2) (Homo sapiens, UniProt P37231): EC50 value of `CS(=O)(=O)c1ccc(C#N)cc1-c1cc(=O)c2c(F)c(C#CC3COC3)c(F)cc2[nH]1` ?
*A* < 100 nM

*Q* // map `CS(=O)(=O)c1ccc(C#N)cc1-c1cc(=O)c2c(F)c(C#CCCO)c(F)cc2[nH]1` to recorded EC50 (system: PPARγ-LBD (UniProt ID: P37231-2) (Homo sapiens, UniProt P37231))
*A* < 100 nM

*Q* Recorded EC50 for `CC(C)(C)C#Cc1c(F)cc2[nH]c(-c3cc(C#N)ccc3S(C)(=O)=O)cc(=O)c2c1F` with PPARγ-LBD (UniProt ID: P37231-2) (Homo sapiens, UniProt P37231), please?
*A* < 100 nM

*Q* Item `Cn1nnnc1Sc1ccc(C#N)cc1-c1cc(=O)c2c(F)cc(F)cc2[nH]1` with PPARγ-LBD (UniProt ID: P37231-2) (Homo sapiens, UniProt P37231) - EC50?
*A* > 1000 nM

*Q* Request - read-out EC50 | tested on PPARγ-LBD (UniProt ID: P37231-2) (Homo sapiens, UniProt P37231) | compound `Cc1noc(C)c1C#Cc1c(F)cc2[nH]c(-c3cc(C#N)ccc3S(C)(=O)=O)cc(=O)c2c1F`
*A* < 100 nM

*Q* Find the measured EC50: item `Cc1ccc(C#Cc2c(F)cc3[nH]c(-c4cc(C#N)ccc4S(C)(=O)=O)cc(=O)c3c2F)cc1` , target or system PPARγ-LBD (UniProt ID: P37231-2) (Homo sapiens, UniProt P37231).
*A* < 100 nM

*Q* Hello, I am looking for reported EC50 with PPARγ-LBD (UniProt ID: P37231-2) (Homo sapiens, UniProt P37231) for `Cc1ccc(S(C)(=O)=O)c(-c2cc(=O)c3c(F)c(CCC4CCOCC4)c(F)cc3[nH]2)c1` . Could you help?
*A* 100 to 1000 nM

*Q* # returns recorded EC50 (system: PPARγ-LBD (UniProt ID: P37231-2) (Homo sapiens, UniProt P37231)) for `CC(C)(O)C#Cc1c(F)cc2[nH]c(-c3cc(C#N)ccc3S(C)(=O)=O)cc(=O)c2c1F`
*A* < 100 nM

*Q* Enter reported EC50 observed with PPARγ-LBD (UniProt ID: P37231-2) (Homo sapiens, UniProt P37231) for `C#Cc1c(F)cc2[nH]c(-c3cc(C#N)ccc3S(C)(=O)=O)cc(=O)c2c1F`
*A* < 100 nM

*Q* Form field: EC50 recorded for `CS(=O)(=O)c1ccc(C#N)cc1-c1cc(=O)c2c(F)c(C#Cc3ccccc3OC(F)(F)F)c(F)cc2[nH]1` with PPARγ-LBD (UniProt ID: P37231-2) (Homo sapiens, UniProt P37231) (enter value)
*A* < 100 nM

*Q* Field: EC50 (PPARγ-LBD (UniProt ID: P37231-2) (Homo sapiens, UniProt P37231)). Entry: `CS(=O)(=O)c1ccc(C#N)cc1-c1cc(=O)c2c(F)c(C#CCO)c(F)cc2[nH]1`
*A* < 100 nM

*Q* Notebook: pull reported EC50 for PPARγ-LBD (UniProt ID: P37231-2) (Homo sapiens, UniProt P37231), entry `COc1nccnc1C#Cc1c(F)cc2[nH]c(-c3cc(C#N)ccc3S(C)(=O)=O)cc(=O)c2c1F`
*A* < 100 nM

*Q* What is its EC50 for PPARγ-LBD (UniProt ID: P37231-2) (Homo sapiens, UniProt P37231)? Entry: `CC(C)C#Cc1c(F)cc2[nH]c(-c3cc(C#N)ccc3S(C)(=O)=O)cc(=O)c2c1F`
*A* < 100 nM

Reference for the values: patent US20260274799A1
